Hi there, I'd appreciate the recorded growth for every entry that follows.
# Tested on: SN12C renal
# EXPERIMENTAL_PROTOCOL: NCI-60 one-dose screen, 48 h (100 = growth as untreated, 0 = no growth, -100 = all killed)
# CONDITION_LABEL: 10 µM
Compounds without any hit were thinned out: in the full panel of roughly 83,000, 20% have a hit.
Number in %, nothing else.

Noted for CNC(=O)c1ccccc1CC1(O)c2ccccc2Oc2ccccc21 : its growth reads 80.9

Noted for O=C(O)c1cc([N+](=O)[O-])ccc1Cl : its growth reads 95.6

Noted for NC(CSC(c1ccccc1)(c1ccccc1)c1ccccc1)C(=O)O (stereo not drawn) : its growth reads 53.6

Noted for Cn1cnc2nc(Cl)nc(Cl)c21 : its growth reads 22.4

Noted for S=c1nn[nH]c2ccccc12 : its growth reads 93.4

Noted for COc1ccccc1C1OC2=Nc3cc(C)c(C)cc3NC2C1=O (stereo not drawn) : its growth reads 81.2

Noted for c1cc2cccc3c4cccc5cccc(c(c1)c23)c54 : its growth reads 98.6

Noted for S=C(Nc1ccccc1)N1CCCCC1 : its growth reads 102

Noted for Cc1ccc(Cl)cc1NC(=O)N(C)CCO : its growth reads 105

Noted for O=C(O)/C=C/C(=O)NCc1ccccc1 : its growth reads 108

Noted for COC(=O)Nc1cccc(Cl)c1OC : its growth reads 112

Noted for Cc1ccc(C)n1-c1ccsc1C(=O)NNC(=O)CCl : its growth reads 92.2

Noted for Cc1ccc(O)c(C(=O)c2ccccc2)c1 : its growth reads 100

Noted for O=C(N/N=C\c1cc(Br)cc(Br)c1O)N/N=C/c1cc(Br)cc(Br)c1O : its growth reads 59

Noted for O=C(c1ccccc1)C1CCC1 : its growth reads 89.2

Noted for O=C(c1ccc(O)cc1)c1ccc(O)cc1 : its growth reads 109

Noted for O=c1cc2oc3cc(O)c(O)cc3c(-c3ccccc3O)c-2cc1O : its growth reads 66.4

Noted for O=C(NCc1ccco1)Nc1c(Cl)cc(Cl)cc1Cl : its growth reads 96.9

Noted for CN(C)CCN(C)CC(C)(C)C(=O)/C=C/c1ccc(Cl)cc1 : its growth reads 2.97

Noted for CC1(C(=O)O)NC(C(=O)O)Cc2c1[nH]c1ccccc21 (stereo not drawn) : its growth reads 95.8

Noted for C=CC(=O)OCCCCCCCC : its growth reads 103

Noted for O=c1[nH]n(-c2ccccc2)c(=O)cc1Cl : its growth reads 93.3

Noted for O=C1OC[C@H]2[C@H](c3ccc(O)c(O)c3)c3cc(O)c(O)cc3C[C@H]12 : its growth reads 110

Noted for CCCNc1ccc(C2=NCCCN2)cc1 : its growth reads 109

Noted for N#CCc1ccc([N+](=O)[O-])cc1 : its growth reads 101

Noted for O=C(NCCNC(=O)c1ccc(Cl)cc1Cl)c1ccc(Cl)cc1Cl : its growth reads 87.1

Noted for COc1ncnc2c1cnn2C : its growth reads 98.2

Noted for CCO/C=C1\SC(=S)N(c2cccc(C)c2)C1=O : its growth reads 106

Noted for O=C(O)CCC(=O)OC(C1CO1)C(OC(=O)CCC(=O)O)C1CO1 (stereo not drawn) : its growth reads 109

Noted for O=C(O)C(O)c1ccccc1 (stereo not drawn) : its growth reads 106

Noted for Nc1ncnc2c1nc(N)n2C1OC(CO)C(O)C1O (stereo not drawn) : its growth reads -22.8

Noted for c1ccc(CN2COc3c(ccc4c3OCN(Cc3ccccc3)C4)C2)cc1 : its growth reads 11.1

Noted for CC12CC3CC1C(C(=O)O2)C3C(=O)O (stereo not drawn) : its growth reads 105

* * *

# Tested on: T-47D breast
# EXPERIMENTAL_PROTOCOL: NCI-60 one-dose screen, 48 h (100 = growth as untreated, 0 = no growth, -100 = all killed)
# CONDITION_LABEL: 10 µM
The panel holds about 83,000 compounds, 20% with a hit somewhere; the sample as a whole holds those more often.
ENDPOINT_NAME: growth (%)
Number in %, nothing else.

Item: O=[N+]([O-])c1cccc(C(F)(F)F)c1 | System: T-47D breast | growth: 105

Item: CC1(O)CCCCC1O (configuration not stated) | System: T-47D breast | growth: 98.4

Item: Cc1ccncc1C(N)=O | System: T-47D breast | growth: 84.5

Item: CO[C@H]1C[C@@H]2CC[C@@H](C)[C@@](O)(O2)C(=O)C(=O)N2CCCC[C@H]2C(=O)O[C@H]([C@H](C)C[C@@H]2CC[C@@H](O)[C@H](OC)C2)CC(=O)[C@H](C)C=C(C)[C@@H](O)[C@@H](OC)C(=O)[C@H](C)C[C@H](C)/C=C/C=C/C=C1C | System: T-47D breast | growth: 19.4

Item: CCN(CC)CCNc1ccc(CO)c2sc3ccccc3c(=O)c12 | System: T-47D breast | growth: 48.3

Item: CC1(C)/C(=C\CO)C2CCC1C2 (configuration not stated) | System: T-47D breast | growth: 101

Item: NC(=S)NN=C1CCCC1 | System: T-47D breast | growth: 40.8

Item: CC(=O)Nc1c(C)cc(C)cc1C | System: T-47D breast | growth: 98.2

Item: OCc1cccc2ccccc12 | System: T-47D breast | growth: 103

Item: c1cc2cccc3c4cccc5cccc(c(c1)c23)c54 | System: T-47D breast | growth: 90.2

Item: O=C1C[C@H](c2ccccc2)[C@H](c2ccccc2)C1 | System: T-47D breast | growth: 99.1

Item: O=C(Cc1ccccc1)Cc1ccccc1 | System: T-47D breast | growth: 102

* * *

Hi there, I'd appreciate the recorded growth for every entry that follows.
# Test system: A498 renal
# EXPERIMENTAL_PROTOCOL: NCI-60 one-dose screen, 48 h (100 = growth as untreated, 0 = no growth, -100 = all killed)
# CONDITION_LABEL: 10 µM
The panel holds about 83,000 compounds, 20% with a hit somewhere; the sample as a whole holds those more often. Activity calls are given as the source filed them. The calls were made as follows: active = growth percent below 10; inactive = the rest.

Noted for Cc1cc(=O)n(-c2ccc(F)cc2)[nH]1 : its growth reads 99.7% (inactive)

Noted for Cc1cccc([N+](=O)[O-])c1Cl : its growth reads 94.5% (inactive)

Noted for CC(C)C1CCCCC1O (stereo not drawn) : its growth reads 97.2% (inactive)

* * *

Hi there, I'd appreciate the recorded growth for every entry that follows.
# System: HCT-15 colon
# EXPERIMENTAL_PROTOCOL: NCI-60 one-dose screen, 48 h (100 = growth as untreated, 0 = no growth, -100 = all killed)
# CONDITION_LABEL: 10 µM
About 83,000 compounds went through this panel and 20% of them were active in at least one assay; those are over-represented in the sample as a whole.
Number in %, nothing else.

Item: COC(=O)/C=C/C(=O)NC(N)=O | System: HCT-15 colon | growth: 96.3

Item: CC(C)C(C#N)(C(C)C)C(C)C | System: HCT-15 colon | growth: 104

Item: COC(=O)c1ccccc1Br | System: HCT-15 colon | growth: 99.6

Item: COS(=O)(=O)c1ccc(Br)cc1 | System: HCT-15 colon | growth: 104

Item: Cc1nc2c(ccc3ccccc32)s1 | System: HCT-15 colon | growth: 110

Item: COC(=O)CCCCC1=CCC2C(=O)C=C(O)C2C1 (stereo not given) | System: HCT-15 colon | growth: 96.3

Item: Clc1ccc(-c2n[nH]c3c2Cc2ccccc2-3)cc1Cl | System: HCT-15 colon | growth: 87.8

Item: CC(C)(N)COS(=O)(=O)O | System: HCT-15 colon | growth: 103

Item: CCCCCCCCCCCCCCCCC1CC(=O)OC1=O (stereo not given) | System: HCT-15 colon | growth: 107

Item: CN(c1ccccc1)c1ncnc2c1ncn2C | System: HCT-15 colon | growth: 102

Item: O=C1Cc2cc(O)ccc2O1 | System: HCT-15 colon | growth: 117

Item: CC(C)C1CCCCC1O (stereo not given) | System: HCT-15 colon | growth: 96

Item: Cc1ccc(C(O)C2CC2)cc1 (stereo not given) | System: HCT-15 colon | growth: 97.7

Item: Nc1ccc(N)c([N+](=O)[O-])c1 | System: HCT-15 colon | growth: 109

Item: NC(CSC(c1ccccc1)(c1ccccc1)c1ccccc1)C(=O)O (stereo not given) | System: HCT-15 colon | growth: 34.3

Item: O=[N+]([O-])c1ccc(N=Nc2ccc(O)c3ccccc23)cc1 | System: HCT-15 colon | growth: 41.2

Item: O=C(O)CCC(NC(=O)OCc1ccccc1)C(=O)O (stereo not given) | System: HCT-15 colon | growth: 110

Item: COc1cc(C(=O)NC(=S)Nc2ccc3ccccc3c2)cc(OC)c1OC | System: HCT-15 colon | growth: 87.4

Item: COc1cc(/C=N\Nc2ccccc2)ccc1OC(=O)c1ccccc1 | System: HCT-15 colon | growth: 24.4

Item: N#Cc1ccc(OC(=O)Nc2ccc(Cl)c(Cl)c2)cc1 | System: HCT-15 colon | growth: 53.6

Item: Cc1cc(N)c(S(=O)(=O)O)c(N)c1 | System: HCT-15 colon | growth: 105

Item: Cc1cc(C)c(CC(=O)O)c(C)c1 | System: HCT-15 colon | growth: 100

Item: COc1ccc(C2OC(N)=C(O)C2=O)cc1OC (stereo not given) | System: HCT-15 colon | growth: 101

Item: NC(=S)N/N=C/c1ccc(N)cc1 | System: HCT-15 colon | growth: 102

Item: CC(=O)c1c[nH]c2ccccc12 | System: HCT-15 colon | growth: 101

Where do the numbers come from? From PubChem BioAssay (NCI).
